// compounds with reported IC50 on Protein kinase C epsilon type (Homo sapiens), multi-publication
Sequence (Q02156 whole entry): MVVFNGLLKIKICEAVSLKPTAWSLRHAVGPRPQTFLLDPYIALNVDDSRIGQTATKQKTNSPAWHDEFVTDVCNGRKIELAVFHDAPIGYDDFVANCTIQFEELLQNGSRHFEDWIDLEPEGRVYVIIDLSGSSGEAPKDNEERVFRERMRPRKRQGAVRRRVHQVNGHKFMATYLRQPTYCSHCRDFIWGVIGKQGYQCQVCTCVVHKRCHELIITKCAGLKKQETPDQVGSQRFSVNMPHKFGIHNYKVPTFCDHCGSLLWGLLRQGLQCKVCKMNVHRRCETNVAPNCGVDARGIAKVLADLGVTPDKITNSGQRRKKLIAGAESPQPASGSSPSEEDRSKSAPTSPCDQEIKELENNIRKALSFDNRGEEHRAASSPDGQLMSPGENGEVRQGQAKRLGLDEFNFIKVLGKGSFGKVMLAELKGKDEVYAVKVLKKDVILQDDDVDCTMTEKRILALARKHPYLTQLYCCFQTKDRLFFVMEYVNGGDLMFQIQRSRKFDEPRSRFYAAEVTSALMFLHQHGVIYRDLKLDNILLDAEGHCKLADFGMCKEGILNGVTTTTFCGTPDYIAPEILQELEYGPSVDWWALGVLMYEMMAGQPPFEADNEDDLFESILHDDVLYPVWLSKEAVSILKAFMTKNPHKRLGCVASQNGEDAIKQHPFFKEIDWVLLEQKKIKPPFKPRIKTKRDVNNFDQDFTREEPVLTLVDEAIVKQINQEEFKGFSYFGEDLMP
measured-metric: IC50

# compound, result
data = [
    ("CN1CCN(c2nc(C3=C(c4c[nH]c5ccccc45)C(=O)NC3=O)c3ccc(Cl)cc3n2)CC1", "> 316 nM"),
    ("COc1ccc(C(=O)NCc2cccc(C(=O)NCCC3CCCNC3)c2)cc1OC (centres undefined)", "> 5000 nM"),
    ("CC(=O)N(C)Cc1ccc2ccc(Cl)c(C3=C(c4cn(C)c5ccccc45)C(=O)NC3=O)c2c1", "> 316 nM"),
    ("COc1ccc(C(=O)NCc2cccc(C(=O)NCCC3CCNCC3)c2)cc1OC", "> 5000 nM"),
]
